# method notes: PK of ixazomib in plasma and urine (LC/MS/MS) after a single [14C]-ixazomib oral solution dose, phase I human ADME study Part A
# Type: in vivo
# cond: human; plasma; single 4.1 mg oral solution dose of [14C]-ixazomib; N = 5; read-out: Geometric mean Cmax, ng/mL (%CV), ixazomib

# molecule, Cmax
measured = [
    ("CC(C)C[C@H](NC(=O)CNC(=O)c1cc(Cl)ccc1Cl)B(O)O [ixazomib]", "89.1 ng/mL"),
]

###

# method notes: PK of ixazomib in plasma and urine (LC/MS/MS) after a single [14C]-ixazomib oral solution dose, phase I human ADME study Part A
# Type: in vivo
# cond: human; urine; single 4.1 mg oral solution dose of [14C]-ixazomib; N = 5; read-out: Geometric mean CLR (renal clearance), L/h (%CV) (converted)

# smiles representation, reading unit, CL renal
records = [
    ("CC(C)C[C@H](NC(=O)CNC(=O)c1cc(Cl)ccc1Cl)B(O)O", "L/h", 0.119),
]

###

# method notes: PK of ixazomib in plasma and urine (LC/MS/MS) after a single [14C]-ixazomib oral solution dose, phase I human ADME study Part A
# Format: in vivo
# cond: human, urine, po, 4.1 mg, up to 168 h post dose; single 4.1 mg oral solution dose; N = 5; read-out: Mean urinary recovery, % (SD): administered dose recovered in urine as unchanged drug

# smiles representation, dose excreted
measured = [
    ("CC(C)C[C@H](NC(=O)CNC(=O)c1cc(Cl)ccc1Cl)B(O)O", "< 3.5%"),
]

###

# method notes: PK of ixazomib in plasma and urine (LC/MS/MS) after a single [14C]-ixazomib oral solution dose, phase I human ADME study Part A
# Format: in vivo
# cond: human, plasma, po, 4.1 mg, plasma; single 4.1 mg oral solution dose of [14C]-ixazomib; N = 5; read-out: Geometric mean AUC0–312, ng*h/mL (%CV), ixazomib

# smiles representation, AUC(0-t) (ng·h/mL)
records = [
    ("CC(C)C[C@H](NC(=O)CNC(=O)c1cc(Cl)ccc1Cl)B(O)O", 1180),
]
